- PROTOCOL_SUMMARY: soluble on expression in E. coli; label from the status in PepcDB or PDB records
PROPERTY: soluble on expression in E. coli

Some entries whose results are on file:
{"SEQUENCE_CONTENT": "MGSDKIHHHHHHMTRNGIGIRTAQVRSERLTGQIHVYDGVGKGKSQAALGVVLRSIGLGINAPNNSNRVLLLRFLKGPERDYDEDGAIAALQRGFPHLIDQVRTGRAEFFGPEEITTFDRSEAGRGWDVAKGAIASGLYSVVVLDEINPVLDLGLLSVDEVVGTLKSKPQELEIIATGRGAPQKLLDIADLHSEMKPLHHPKATELLMKGIEIYTGAGKGKSTSALGKALQAIGRGINHPGSTRVLIMQWLKGGSGYTEDAAIAALRQSYPEVVDHQRCGRDAIVWRNSRQELDYVEAERGWEIAKVAIASGLYKTIILDELNPTVDLELLPVEPIVQALLRKPRDTEIIITGRCQNQPAYFDLASIHSEVYCHKHYANQGVELKRGVDF", "soluble on expression in E. coli": "not soluble"}
{"SEQUENCE_CONTENT": "MSLNYEMFAKLYDRLMADAPYDRWAKLVEEEIRKAIFSDVNLLDIGCGTGRLLKILSERGYACTGVDQSANMLVIAREALAQKGVQVPLFQQDMTEFYTGETYQVITIFCDSLNYVITEEGVVQTFQRVFDHLDQQGVFMFDVHSPTKLRNHFIGKTFADADEEISYIWQSFAGEAEQSVEHELTFFVRNETGSYDRYEELHIQRGYPIERYVDWLKEAGFSRIDITADFTNEAPTENSERIFFKAYKKEGHHHHHH", "soluble on expression in E. coli": "soluble"}
{"SEQUENCE_CONTENT": "MGSDKIHHHHHHMDTRKNVSGAERKIWSLIRDCSGKLEGVTETSVLEVLLIVSRVLGIRKEDLFLKDLGVSPTEEKRILELVEKRASGYPLHYILGEKEFMGLSFLVEEGVFVPRPETEELVELALELIRKYGIKTVADIGTGSGAIGVSVAKFSDAIVFATDVSSKAVEIARKNAERHGVSDRFFVRKGEFLEPFKEKFASIEMILSNPPYVKSSAHLPKDVLFEPPEALFGGEDGLDFYREFFGRYDTSGKIVLMEIGEDQVEELKKIVSDTVFLKDSAGKYRFLLLNRRSS", "soluble on expression in E. coli": "soluble"}
{"SEQUENCE_CONTENT": "MVQSCSAYGCKNRYDKDKPVSFHKFPLTRPSLCKEWEAAVRRKNFKPTKYSSICSEHFTPDCFKRECNNKLLKENAVPTIFLCTEPHDKKEDLLEPQEQLPPPPLPPPVSQVDAAIGLLMPPLQTPVNLSVFCDHNYTVEDTMHQRKRIHQLEQQVEKLRKKLKTAQQRCRRQERQLEKLKEVVHFQKEKDDVSERGYVILPNDYFEIVEVPA", "soluble on expression in E. coli": "soluble"}
{"SEQUENCE_CONTENT": "MPFSQIGINGIVNLKKMHVKNYRAPQVSVLNFLPPRHIVLGLENLDIGLGSEFTANAVPIVVEGSLVGQITGMTVALTTELLTDVTGKMNAVVRNCSALIGNSHIVLNPTGPMSIFVKTFEPMINDSVRQRIPEMFCSRLQNLIEKNISKLFEFITKIDLEDYFPKASNVEKDVMNM", "soluble on expression in E. coli": "not soluble"}

Exam item: I have this sequence here, GTERPYGQREVDHYAEKQAIAERAAQEVREGQVVCFDAGSTTMEVARAIPDTDYVAATNMPDLATELAEGDVDTKLTGGSLRPRTRALVGPTAERAVERMNFDLLFLGTNALDSAAGLSTPNEDEAAIKELMVERARRVVLVADASKFGDR , and I need its recorded soluble on expression in E. coli.
Marked response: not soluble

Exam item: Try the sequence MSLKTTFLEFEQPIAELEAKIEELRFVQDDSAVDISEEISRLAAKSQQLTKDLYATLSPWQVAQIARHPQRPYTLDYVREIFTDFHELHGDRTFADDLSIVGGLARFNGQPCMVIGHQKGRDTKERALRNFGMSKPEGYRKAKRLMELADKFGLPIFTFVDTPGAFPGIEAEERGQSEAIGHNLFVMAGLKVPLIATIIGEGGSGGALAIAVGDSVIMLQFATYAVISPEGCASILWKTAEKAPEAAEALGLTAHRLKALGLIDKIVNEPLGGAHRDPKAMATMLKRALAESLRQFQGMKTSELQARRHERLMAYGKFKETGSNEGHHHHHH
Marked response: not soluble

Exam item: Request: MGHHHHHHSHMHGSPVEVKIQSRSSPPTMPPLPPINPGGPRPVSFTPTALSNGINHSPPTLNGAPSPPQRFSNGPASSTSSALTNQQLPATCGARQLSKLKRFLTTLQQFGNDISPEIGEKVRTLVLALVNSTVTIEEFHCKLQEATNFPLRPFVIPFLKANLPLLQRELLHCARAAKQTPSQYLAQHEHLLLNTSIASPADSSELLMEVHGNGKRPSPESCIIHLKSMGVASRHEYFSGTLQMPAHPVRNSTLENLWVDCSRSLRSTVLPFP
Marked response: not soluble

Exam item: One more sequence: AIAVSRLEHPAGGYKKVFESCEELAEPIPAHVSGKIPAWLSGSLLRMGPGLFEIGDEPFNHLFDGQALIHKFDLKDGRVTYHRKFIRTDAYVRAMTEKRVVITELGTAAYPDPCKNIFSRFFTYFQGTEVTDNCSVNIYPIGEDFYACTETNFITKVNPDTLETIKKVDLCNYLSVNGLTAHPHIEADGTVYNIGNCFGKNMSLAYNIVKIPPLQEEKSDPLAMSKVLVQFPSSERFKPSYVHSFGMTENHFVFVETPVKINLLKFLTSWSIRGSNYMDCFESNDRMGTWFHLAAKNPGKYINNPSQ
Marked response: soluble

Exam item: Same thing, different sequence: GFQSNAMKQETPITLHVKSVIEDDGNQEVIEFRTTGFYYVKQNKVYLSYYEEHDLGKVKTIVKVSEGEVLVMRSGAVKMNQRFVTGASTIAKYKMSFGELELKTSTKSIQSDLDEEKGRISIAYDMHVGDEQEHLHNMTITYEGGTHA
Marked response: soluble

Exam item: Also MGHHHHHHSHMLACCAIYSPVRCAFPYTETERRFTCKRRIFRIILTLCGRENMKIRALLVAMSVATVLTGCQNMDSNGLLSSGAEAFQAYSLSDAQVKTLSDQACQEMDSKATIAPANSEYAKRLTTIANALGNNINGQPVNYKVYMAKDVNAFAMANGCIRVYSGLMDMMTDNEVEAVIGHEMGHVALGHVKKGMQVALGTNAVRVAAASAGGIVGSLSQSQLGNLGEKLVNSQFSQRQEAEADDYSYDLLRQRGISPAGLATSFEKLAKLEEGRQSSMFDDHPASAERAQHIRDRMSADGIK , if possible.
Marked response: not soluble
